- Measured target: full length human Shh expressed on the cell surface (human, UniProt Q15465 24-462)
- Experimental protocol: cell-based or functional assay
Value type: % Inh of Gli1 reporter, Co-Culture N = 1 (%)
Just the number in %, nothing appended.

Examples with their reported % Inh of Gli1 reporter, Co-Culture N = 1 follow.
- Binder: "1A12 (antibody, V domains shown, fully human XenoMouse hybridoma antibody; tested as hybridoma supernatant and as purified antibody; also called MAb 1A12) VH: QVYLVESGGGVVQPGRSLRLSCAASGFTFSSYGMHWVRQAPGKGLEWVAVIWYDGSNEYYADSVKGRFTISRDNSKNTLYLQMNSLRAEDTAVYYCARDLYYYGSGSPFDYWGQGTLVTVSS VL: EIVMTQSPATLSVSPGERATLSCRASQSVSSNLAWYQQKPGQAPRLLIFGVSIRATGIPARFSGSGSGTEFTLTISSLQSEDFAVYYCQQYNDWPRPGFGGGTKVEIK"
  Val: 40
- Binder: "6D7 (antibody, V domains shown, fully human XenoMouse hybridoma antibody; also called MAb 6D7) VH: QVQLQESGPGLVKPSQTLSLTCTVSGGSINSGGFYWSWIRQHPGKNLEWIGSIYYSGNTYYNPSLKSRVTISVDTSKNQFSLKLTSVTAADTAVYYCARGNDSGDYDWYFDLWGRGTLVTVSS VL: SYELTQPPSVSVSPGQTASITCSGEKLGYKYVCWYQQKPGQSPVLVIFHDNKRPSGIPERFSGSNSGNTATLTISGAQAMDEADYYCQAGDSSAVFGGGTKLTVL"
  Val: 46

*Q* Name the recorded % Inh of Gli1 reporter, Co-Culture N = 1 of the binder listed here: 1G12 (antibody, V domains shown, fully human XenoMouse hybridoma antibody; tested as hybridoma supernatant and as purified antibody; also called MAb 1G12) VH: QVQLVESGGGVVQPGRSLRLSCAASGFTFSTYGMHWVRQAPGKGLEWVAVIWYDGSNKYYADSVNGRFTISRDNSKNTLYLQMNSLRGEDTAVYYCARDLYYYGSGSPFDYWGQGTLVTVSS VL: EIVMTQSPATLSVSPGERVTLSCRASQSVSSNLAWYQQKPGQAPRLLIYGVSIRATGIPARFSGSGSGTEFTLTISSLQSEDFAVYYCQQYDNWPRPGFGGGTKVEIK
*A* 30
